molecular target: hH1 Na+ current (Homo sapiens); experiment: Patch-clamp inhibition of cloned ion channel current in transfected HEK cells: Na; conditions: peak hH1 Na+ current, -100 mV to -30 mV
Sequence (Q14524 whole entry): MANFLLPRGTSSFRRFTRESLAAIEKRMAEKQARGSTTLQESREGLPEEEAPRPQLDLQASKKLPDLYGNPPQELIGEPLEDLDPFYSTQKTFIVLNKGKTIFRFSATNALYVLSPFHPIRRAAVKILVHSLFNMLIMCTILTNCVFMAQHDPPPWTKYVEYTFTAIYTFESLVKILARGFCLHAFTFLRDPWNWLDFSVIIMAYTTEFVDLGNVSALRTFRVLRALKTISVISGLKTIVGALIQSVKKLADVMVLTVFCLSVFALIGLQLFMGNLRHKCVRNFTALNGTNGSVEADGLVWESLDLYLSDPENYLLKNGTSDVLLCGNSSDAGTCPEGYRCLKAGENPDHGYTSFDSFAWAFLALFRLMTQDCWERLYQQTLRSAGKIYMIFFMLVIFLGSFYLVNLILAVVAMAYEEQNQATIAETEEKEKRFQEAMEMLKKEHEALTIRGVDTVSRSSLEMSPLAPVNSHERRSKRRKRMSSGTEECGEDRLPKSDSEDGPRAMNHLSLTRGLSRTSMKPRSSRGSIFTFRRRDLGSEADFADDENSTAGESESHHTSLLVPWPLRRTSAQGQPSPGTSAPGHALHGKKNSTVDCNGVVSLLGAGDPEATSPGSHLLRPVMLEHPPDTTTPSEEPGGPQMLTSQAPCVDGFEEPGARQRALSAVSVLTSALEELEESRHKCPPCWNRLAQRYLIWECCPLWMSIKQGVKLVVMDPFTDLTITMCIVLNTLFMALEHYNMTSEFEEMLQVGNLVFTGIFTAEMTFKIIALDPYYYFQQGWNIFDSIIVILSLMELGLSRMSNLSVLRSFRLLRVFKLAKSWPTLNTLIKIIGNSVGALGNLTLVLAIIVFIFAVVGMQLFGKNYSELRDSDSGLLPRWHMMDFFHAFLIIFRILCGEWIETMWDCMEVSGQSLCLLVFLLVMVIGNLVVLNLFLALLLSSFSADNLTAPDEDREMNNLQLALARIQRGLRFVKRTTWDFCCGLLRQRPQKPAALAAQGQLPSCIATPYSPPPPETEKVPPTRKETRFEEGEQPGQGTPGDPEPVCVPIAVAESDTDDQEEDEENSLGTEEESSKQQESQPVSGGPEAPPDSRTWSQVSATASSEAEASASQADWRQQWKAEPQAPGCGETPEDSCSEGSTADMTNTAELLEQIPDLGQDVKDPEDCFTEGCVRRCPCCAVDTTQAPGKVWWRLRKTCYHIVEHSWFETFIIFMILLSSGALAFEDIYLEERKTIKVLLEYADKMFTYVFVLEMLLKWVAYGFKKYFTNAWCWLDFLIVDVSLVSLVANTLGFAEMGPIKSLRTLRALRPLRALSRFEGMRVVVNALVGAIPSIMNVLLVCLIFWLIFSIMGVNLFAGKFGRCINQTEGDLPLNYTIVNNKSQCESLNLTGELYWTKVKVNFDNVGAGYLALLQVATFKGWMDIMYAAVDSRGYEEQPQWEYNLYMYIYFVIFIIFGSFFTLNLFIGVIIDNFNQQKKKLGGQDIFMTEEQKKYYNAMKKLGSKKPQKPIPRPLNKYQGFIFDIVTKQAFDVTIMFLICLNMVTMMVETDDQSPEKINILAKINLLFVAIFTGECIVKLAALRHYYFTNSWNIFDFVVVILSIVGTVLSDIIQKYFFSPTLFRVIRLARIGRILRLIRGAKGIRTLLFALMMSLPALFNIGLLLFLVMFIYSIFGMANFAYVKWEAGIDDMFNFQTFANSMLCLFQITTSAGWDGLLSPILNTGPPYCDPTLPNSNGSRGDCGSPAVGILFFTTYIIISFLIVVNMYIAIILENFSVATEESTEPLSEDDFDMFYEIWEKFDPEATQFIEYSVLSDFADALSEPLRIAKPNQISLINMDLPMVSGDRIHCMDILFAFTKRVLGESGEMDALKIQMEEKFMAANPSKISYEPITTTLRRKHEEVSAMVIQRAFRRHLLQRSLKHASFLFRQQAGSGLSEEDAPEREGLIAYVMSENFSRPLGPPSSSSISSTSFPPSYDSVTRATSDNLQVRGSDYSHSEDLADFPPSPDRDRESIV
pIC50: −log10 of the molar value. Where a name gives a salt, the structure may show the parent alone.

{"compound": "Cc1cn2cccc(OCCCCCc3ccccc3)c2n1 [Compound 10, MONOHYDROCHLORIDE]", "pIC50": 4.92}
{"compound": "COc1ccc(CCCOc2cccn3cc(C)nc23)cc1OC", "pIC50": 4.03}
{"compound": "Cc1cn2cccc(OCc3ccc(Cl)cc3Cl)c2n1 [Compound 8, MONOHYDROCHLORIDE]", "pIC50": 2.92}
{"compound": "Cc1cn2cccc(OCCCOCc3ccccc3)c2n1 [Compound 11, MONOHYDROCHLORIDE]", "pIC50": 3.82}
{"compound": "Cc1cn2cccc(OCc3ccccc3C(F)(F)F)c2n1 [Compound 7, MONOHYDROCHLORIDE]", "pIC50": 4.82}
